Molecular target: T1, human IL-11 (Invigate, e.g., lot #C121021-19) (human, UniProt P20809 22-199)
T1 construct: Bought protein; also called hIL-11; hIL11
T1 sequence: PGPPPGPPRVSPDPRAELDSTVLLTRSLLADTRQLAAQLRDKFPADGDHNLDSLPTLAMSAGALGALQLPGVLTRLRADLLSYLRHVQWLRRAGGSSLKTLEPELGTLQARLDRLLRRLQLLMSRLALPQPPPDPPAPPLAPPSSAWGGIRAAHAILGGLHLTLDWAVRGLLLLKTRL
Test: SPR, Biacore 8K; antibody captured on anti-human IgG Fc chip, IL-11 analyte 0-50 nM, 1:1 fit
MEASURED PARAMETER: Kd (nM)
Could you give me the number in nM? Just the number is fine.

1) TPP-31296 (antibody, human IgG4, V domains shown, consecutive numbering; also called VH-F63S) VH: EVQLLESGGGLVQPGGSLRLSCAASGFTFSHYDMNWLRQAPGKGLEWVGVISYDGSNKFYADSVKGRFTISRDNSKNTLYLQMNSLRAEDTAVYYCARTPGSHFDYWGQGTLVTVSS VL: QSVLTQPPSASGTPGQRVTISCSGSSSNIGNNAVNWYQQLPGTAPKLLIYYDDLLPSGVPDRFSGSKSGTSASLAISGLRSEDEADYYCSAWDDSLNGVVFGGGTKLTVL; 9.4
2) TPP-31294 (antibody, human IgG4, V domains shown, consecutive numbering; also called VH-G49A) VH: EVQLLESGGGLVQPGGSLRLSCAASGFTFSHYDMNWLRQAPGKGLEWVAVISYDGSNKFYADFVKGRFTISRDNSKNTLYLQMNSLRAEDTAVYYCARTPGSHFDYWGQGTLVTVSS VL: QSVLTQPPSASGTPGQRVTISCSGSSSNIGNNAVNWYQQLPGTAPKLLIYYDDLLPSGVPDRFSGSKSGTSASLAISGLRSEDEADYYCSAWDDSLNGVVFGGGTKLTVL; 11

Please find the next binder below.
INPUT: Report Kd for TPP-31280 (antibody, human IgG4, V domains shown, consecutive numbering; also called VL-Y51R) VH: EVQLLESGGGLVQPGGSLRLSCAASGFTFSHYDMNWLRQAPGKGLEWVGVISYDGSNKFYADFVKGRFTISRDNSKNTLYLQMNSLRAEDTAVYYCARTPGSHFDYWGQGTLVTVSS VL: QSVLTQPPSASGTPGQRVTISCSGSSSNIGNNAVNWYQQLPGTAPKLLIYRDDLLPSGVPDRFSGSKSGTSASLAISGLRSEDEADYYCSAWDDSLNGVVFGGGTKLTVL please.
OUTPUT: 600
